SYSTEM_NAME: T1, human Y2 receptor (human, UniProt P49146 1-381)
T1 construct: whole, on cells; used as membrane fraction of hY2R/CHO cells; also called human NPY2R; hY2R
T1 sequence (looked up): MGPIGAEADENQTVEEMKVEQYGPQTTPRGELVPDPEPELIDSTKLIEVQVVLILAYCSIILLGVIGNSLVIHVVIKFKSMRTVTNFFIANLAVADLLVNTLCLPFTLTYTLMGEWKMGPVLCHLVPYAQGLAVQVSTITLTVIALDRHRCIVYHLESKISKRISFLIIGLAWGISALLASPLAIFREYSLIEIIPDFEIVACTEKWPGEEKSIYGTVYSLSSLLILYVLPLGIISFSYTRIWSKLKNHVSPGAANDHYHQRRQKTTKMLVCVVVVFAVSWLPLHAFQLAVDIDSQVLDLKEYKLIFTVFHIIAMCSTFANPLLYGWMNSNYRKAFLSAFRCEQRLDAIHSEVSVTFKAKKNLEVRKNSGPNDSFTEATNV
ASSAY_INFO: RBA: [125I]-PYY displacement, hY2R/CHO membranes
Non-standard residues stand in square brackets, D forms with d. Cha = N[C@@H](CC1CCCCC1)C(=O)O; Aib = CC(C)(N)C(=O)O
READOUT_NAME: IC50 Ratio (vs PYY(3-36)) (ratio)
Answer with a number only, understood to be in ratio.

Query (binder): Ac-S[dP]RE[Cha][Cha]NL[Aib]TRQR[Cha]-NH2 (SMILES CC(=O)N[C@@H](CO)C(=O)N1CCC[C@@H]1C(=O)N[C@@H](CCCNC(=N)N)C(=O)N[C@@H](CCC(=O)O)C(=O)N[C@@H](CC1CCCCC1)C(=O)N[C@@H](CC1CCCCC1)C(=O)N[C@@H](CC(N)=O)C(=O)N[C@@H](CC(C)C)C(=O)NC(C)(C)C(=O)N[C@H](C(=O)N[C@@H](CCCNC(=N)N)C(=O)N[C@@H](CCC(N)=O)C(=O)N[C@@H](CCCNC(=N)N)C(=O)N[C@@H](CC1CCCCC1)C(N)=O)[C@@H](C)O, also called compound No. 151) [Ac-[D-Pro24, Glu26, Cha27,28,36, Aib31]-PYY(23-36)] ; field requested: IC50 Ratio (vs PYY(3-36))
68
